Cited source for all entries: the supplement of paper PMC6757056

Please respond with reported normalized RNA/DNA level without ligand (log10) for every item in the list.
B1: library; a variant is named by its letters at N, in order (parent)
chain: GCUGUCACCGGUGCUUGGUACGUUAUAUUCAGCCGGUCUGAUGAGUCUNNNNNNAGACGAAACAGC

Variants of: B1
ASSAY_PROTOCOL: normalized RNA/DNA level without ligand (relative to sTRSVctl = 100) (log10 (% of sTRSVctl)); HEK293T overexpressing SLC46A1; higher = less ribozyme self-cleavage, higher mRNA level
RUN_CONDITIONS: without (6R,S)-folinic acid; ligand present: no
Give bare numbers.

Below: 5 variants and their reported normalized RNA/DNA level without ligand (log10).
**Q:** What does the data say about its normalized RNA/DNA level without ligand (log10)? Entry: `CUCAUG`
**A:** 2

**Q:** What do you have for `CUACUC` ?
**A:** 2.05

**Q:** What do you have for `AAGCAA` ?
**A:** 1.96

**Q:** What do you have for `UUGAGU` ?
**A:** 1.93

**Q:** What do you have for `GCUACU` ?
**A:** 2.02

List the reported normalized RNA/DNA level without ligand (log10) of each variant below.
1. GCUAAC
2. GGGAUC
3. UCGCGU
4. AGGGGU

**A:**
1: 1.98; 2: 2.04; 3: 2.03; 4: 1.98

List the reported normalized RNA/DNA level without ligand (log10) of each variant below.
1. UCGGCU
2. UCUUGG
3. CUGACA
4. AACCCA
5. CGUCAU

**A:**
1. 2.08
2. 1.9
3. 2
4. 2.03
5. 2.01

List the reported normalized RNA/DNA level without ligand (log10) of each variant below.
1. UCUUUC
2. AUUAUC
3. CACCGG
4. UGAAAA
5. ACCAAA
6. CGCCAU
7. GUUGCC
8. AUAUGC

**A:**
1. 2.02
2. 2.06
3. 1.97
4. 1.98
5. 2.02
6. 1.99
7. 2.03
8. 1.97
